Experiment: Comparative oral bioavailability / pharmacokinetic study, single intravenous and oral administration
Type: in vivo
Conditions: rat, 5 mg/kg iv dose, Mean CV (%)
Description: The pharmacokinetic properties and the oral bioavailability were investigated for the following comparative compounds: The plasma concentrations of the test items were measured by LC/MS/MS method following single intravenous and oral administration at the doses of 5 mg/kg body weight and 50 mg/kg body weight, respectively. […] Following i.v administration, the highest plasma concentrations were measured at the first sampling time-point (5 minutes) followed by a biphasic continuous decrease. […]
Parameter measured: C0

Can you look up the measured C0 of CC(C)(CCCCCCCCCCCCC(C)(C)C(=O)O)C(=O)O [Compound 7″, reference compound] for me?
74.6 (6.9%) μg/ml

Can you look up the measured C0 of CC(C)(CCCCCCCCCCC(C)(C)CC(=O)O)CC(=O)O [Compound 1″, reference compound] for me?
56.1 (6.2%) μg/ml

Can you look up the measured C0 of [2H]C([2H])([2H])C(CCCCCCCCCCCCC(C(=O)O)(C([2H])([2H])[2H])C([2H])([2H])[2H])(C(=O)O)C([2H])([2H])[2H] [Compound 7] for me?
64.3 (16.9%) μg/ml

Can you look up the measured C0 of [2H]C([2H])([2H])C(CCCCCCCCCCC(C([2H])([2H])[2H])(C([2H])([2H])[2H])C([2H])([2H])C(=O)O)(C([2H])([2H])[2H])C([2H])([2H])C(=O)O [Compound 1] for me?
67.0 (8.8%) μg/ml

====

Assay: Chemical and isotopic stability as solutions in DMSO/phosphate buffered saline over 48 hours
Settings: DMSO/PBS solution, 37° C., throughout the time period of the study
Parameter measured: disenrichment of the product (isotopic stability)

Molecule: [2H]C([2H])(C(=O)O)C(C)(C)CCCCCCCCCCCCC(C)(C)C([2H])([2H])C(=O)O [Compound 5]
Result: No disenrichment

Molecule: [2H]C([2H])([2H])C(CCCCCCCCCCC(C([2H])([2H])[2H])(C([2H])([2H])[2H])C([2H])([2H])C(=O)O)(C([2H])([2H])[2H])C([2H])([2H])C(=O)O [Compound 1]
Result: No disenrichment

Molecule: [2H]C([2H])([2H])C(CCCCCCCCCCCCC(C(=O)O)(C([2H])([2H])[2H])C([2H])([2H])[2H])(C(=O)O)C([2H])([2H])[2H] [Compound 7]
Result: No disenrichment

====

Assay: Comparative oral bioavailability / pharmacokinetic study, single intravenous and oral administration
Assay type: in vivo
Conditions: rat, 50 mg/kg po, Mean CV (%)
Parameter measured: AUCinf

Would you please look over these solved cases?
Compound: CC(C)(CCCCCCCCCCC(C)(C)CC(=O)O)CC(=O)O [Compound 1″, reference compound]
AUCinf: 863 (29.4%) h * μg/ml
--
Compound: CC(C)(CCCCCCCCCCCCC(C)(C)C(=O)O)C(=O)O [Compound 7″, reference compound]
AUCinf: 1586 (28.3%) h * μg/ml
--
Compound: [2H]C([2H])([2H])C(CCCCCCCCCCC(C([2H])([2H])[2H])(C([2H])([2H])[2H])C([2H])([2H])C(=O)O)(C([2H])([2H])[2H])C([2H])([2H])C(=O)O
AUCinf: 1246 (11.1%) h * μg/ml

Can you look up the measured AUCinf of "[2H]C([2H])([2H])C(CCCCCCCCCCCCC(C(=O)O)(C([2H])([2H])[2H])C([2H])([2H])[2H])(C(=O)O)C([2H])([2H])[2H]" for me?
2221 (36.8%) h * μg/ml

====

In this section, each of the molecules is paired with its reported HPLC Area Percentage.
Assay: Chemical and isotopic stability as solutions in DMSO/phosphate buffered saline over 48 hours
Conditions: DMSO/PBS solution, 37° C., 2 h
Form entry: value (%) — number only.

Would you please look over these solved cases?
Chem smiles: [2H]C([2H])([2H])C(CCCCCCCCCCCCC(C([2H])([2H])[2H])(C([2H])([2H])[2H])C([2H])([2H])C(=O)O)(C([2H])([2H])[2H])C([2H])([2H])C(=O)O
HPLC Area Percentage / %: 97.8
//
Chem smiles: [2H]C([2H])(C(=O)O)C(C)(C)CCCCCCCCCCCCC(C)(C)C([2H])([2H])C(=O)O
HPLC Area Percentage / %: 98.0
//
Chem smiles: [2H]C([2H])([2H])C(CCCCCCCCCCCCCCC(C(=O)O)(C([2H])([2H])[2H])C([2H])([2H])[2H])(C(=O)O)C([2H])([2H])[2H]
HPLC Area Percentage / %: 94.3
//
Chem smiles: [2H]C([2H])([2H])C(CCCCCCCCCCCCC(CC(=O)O)(C([2H])([2H])[2H])C([2H])([2H])[2H])(CC(=O)O)C([2H])([2H])[2H]
HPLC Area Percentage / %: 98.6

Okay, next one:
Can you look up the measured HPLC Area Percentage of "[2H]C([2H])(C(=O)O)C(C)(C)CCCCCCCCCCC(C)(C)C([2H])([2H])C(=O)O" for me?
95.5

====

Experiment: Comparative oral bioavailability / pharmacokinetic study, single intravenous and oral administration
Type: in vivo
Settings: rat, 50 mg/kg po dose, Mean CV (%)
In this section, each of the compounds is paired with its reported Cmax.

Would you please look over these solved cases?
Compound: CC(C)(CCCCCCCCCCCCC(C)(C)C(=O)O)C(=O)O [Compound 7″, reference compound]
Cmax: 143 (41.3%) μg/ml

Compound: [2H]C([2H])([2H])C(CCCCCCCCCCCCC(C(=O)O)(C([2H])([2H])[2H])C([2H])([2H])[2H])(C(=O)O)C([2H])([2H])[2H]
Cmax: 151 (29.0%) μg/ml

Compound: [2H]C([2H])([2H])C(CCCCCCCCCCC(C([2H])([2H])[2H])(C([2H])([2H])[2H])C([2H])([2H])C(=O)O)(C([2H])([2H])[2H])C([2H])([2H])C(=O)O
Cmax: 114 (19.6%) μg/ml

Can you look up the measured Cmax of CC(C)(CCCCCCCCCCC(C)(C)CC(=O)O)CC(=O)O [Compound 1″, reference compound] for me?
103 (24.2%) μg/ml

====

Assay: Chemical and isotopic stability as solutions in DMSO/phosphate buffered saline over 48 hours
Details: DMSO/PBS solution, 37° C., 2 h
In this section, each of the molecules is paired with its reported GC/MS IE (isotopic enrichment).
Form entry: value (%) — number only.

Would you please look over these solved cases?
Chem smiles: [2H]C([2H])([2H])C(CCCCCCCCCCCCC(C(=O)O)(C([2H])([2H])[2H])C([2H])([2H])[2H])(C(=O)O)C([2H])([2H])[2H]
Parameter measured: GC/MS IE (isotopic enrichment)
Recorded number: 99.9
//
Chem smiles: [2H]C([2H])([2H])C(CCCCCCCCCCC(CC(=O)O)(C([2H])([2H])[2H])C([2H])([2H])[2H])(CC(=O)O)C([2H])([2H])[2H]
Parameter measured: GC/MS IE (isotopic enrichment)
Recorded number: 99.9
//
Chem smiles: [2H]C([2H])([2H])C(CCCCCCCCCCCCC(C([2H])([2H])[2H])(C([2H])([2H])[2H])C([2H])([2H])C(=O)O)(C([2H])([2H])[2H])C([2H])([2H])C(=O)O
Parameter measured: GC/MS IE (isotopic enrichment)
Recorded number: 98.4

Can you look up the measured GC/MS IE (isotopic enrichment) of "[2H]C([2H])(C(=O)O)C(C)(C)CCCCCCCCCCC(C)(C)C([2H])([2H])C(=O)O" for me?
98.0

====

In this section, each of the molecules is paired with its reported HPLC Area Percentage.
Test: Chemical and isotopic stability as solutions in DMSO/phosphate buffered saline over 48 hours
Conditions: DMSO/PBS solution, 37° C., 2 h
Form entry: value (%) — number only.

Would you please look over these solved cases?
Chem smiles: [2H]C([2H])([2H])C(CCCCCCCCCCC(CC(=O)O)(C([2H])([2H])[2H])C([2H])([2H])[2H])(CC(=O)O)C([2H])([2H])[2H]
HPLC Area Percentage, %: 98.8

Chem smiles: [2H]C([2H])([2H])C(CCCCCCCCCCCCC(C(=O)O)(C([2H])([2H])[2H])C([2H])([2H])[2H])(C(=O)O)C([2H])([2H])[2H]
HPLC Area Percentage, %: 95.4

Okay, next one:
Can you look up the measured HPLC Area Percentage of "[2H]C([2H])([2H])C(CCCCCCCCCCC(C([2H])([2H])[2H])(C([2H])([2H])[2H])C([2H])([2H])C(=O)O)(C([2H])([2H])[2H])C([2H])([2H])C(=O)O" for me?
97.2
